# tested.system: BCL2 D103Y (Homo sapiens, UniProt P10415, D103Y)
# assay.remarks: TR-FRET competitive binding assay, BCL2 D103Y
# experimental.parameters: Ki determined from IC50, read-out: TR_FRET EKI_Bcl2 D103Y
Note to self: use Satisfied only for Ki readings below 0.2 nM; a reading exactly at 0.2 nM still gets Not satisfied.

• Cc1c(N(C(=O)c2cc(-c3cc4c(cc3C(=O)N3Cc5ccccc5C[C@H]3C)CN(C(=O)Cc3ccc(Br)cc3F)CC4)n(C)c2C)c2ccc(O)cc2)cc(C#N)n1C [Example 24] = Not satisfied
• Cc1ccc(N(C(=O)c2cc(-c3cc4c(cc3C(=O)N3Cc5ccccc5C[C@H]3C)CN(C(=O)Cc3ccc(OCCN5CCOCC5)cc3)CC4)n(C)c2C)c2ccccc2)cc1C#N [Example 204] = Satisfied
• Cc1c(N(C(=O)c2cc(-c3cc4c(cc3C(=O)N3Cc5ccccc5C[C@H]3C)CN(C(=O)Cc3ccc(OCCNCCF)cc3)CC4)n(C)c2C)c2ccc(O)cc2)cc(C#N)n1C [Example 235] = Satisfied
• Cc1c(N(C(=O)c2cc(-c3cc4c(cc3C(=O)N3Cc5ccccc5C[C@H]3C)CN(S(=O)(=O)Cc3ccccc3)CC4)n(C)c2C)c2ccc(O)cc2)cc(C#N)n1C [Example 14] = Not satisfied
• Cc1c(C(=O)N(c2ccccc2)c2cnn(C(F)F)c2)cc(-c2cc3c(cc2C(=O)N2Cc4ccccc4C[C@H]2CN2CC4(CCC4)C2)CN(C(=O)Cc2ccc(OCCN4CCOCC4)cc2)CC3)n1C [Example 206] = Satisfied

###

log10 Ki values by entry
# tested.system: BCL2 D111A (Homo sapiens, UniProt P10415, D111A)
# assay.remarks: TR-FRET competitive binding assay, BCL2 D111A
# experimental.parameters: Ki determined from IC50, read-out: TR_FRET EKI_Bcl2 D111A
experimental.endpoint: log10 Ki (log10 of the value in nM)

* Cc1c(N(C(=O)c2cc(-c3cc4c(cc3C(=O)N3Cc5ccccc5C[C@H]3C)CN(C(=O)Cc3ccc(CCN5CCOCC5)cc3)CC4)n(C)c2C)c2ccc(O)cc2)cc(C#N)n1C | -0.82
* Cc1c(N(C(=O)c2cc(-c3cc4c(cc3C(=O)N3Cc5ccccc5C[C@H]3C)CN(C(=O)Cc3ccc(OCCN5CCOCC5)cc3)CC4)n(C)c2C)c2ccc(O)cc2)cc(C#N)n1C | -0.72
* Cc1c(N(C(=O)c2cc(-c3cc4c(cc3C(=O)N3Cc5ccccc5C[C@H]3C)CN(C(=O)Cc3ccc(C5CCN(CCF)CC5)c(F)c3)CC4)n(C)c2C)c2ccc(O)cc2)cc(C#N)n1C | -0.23
* Cc1c(N(C(=O)c2cc(-c3cc4c(cc3C(=O)N3Cc5ccccc5C[C@H]3CN3CCCCC3)CN(C(=O)Cc3ccc(OCCN5CCOCC5)cc3)CC4)n(C)c2C)c2ccc(O)cc2)cc(C#N)n1C | -1.05
* Cc1c(N(C(=O)c2cc(-c3cc4c(cc3C(=O)N3Cc5ccccc5C[C@H]3C)CN(C(=O)Cc3ccc(OCCN5CCC(F)(F)C5)cc3)CC4)n(C)c2C)c2ccc(O)cc2)cc(C#N)n1C | 0.16
* Cc1c(N(C(=O)c2cc(-c3cc4c(cc3C(=O)N3Cc5ccccc5C[C@H]3CN3CCCCC3)CN(C(=O)Cc3ccc(OCCN5CCOCC5(C)C)cc3)CC4)n(C)c2C)c2ccc(O)cc2)cc(C#N)n1C | -0.82
* COc1ncc(N(C(=O)c2cc(-c3cc4c(cc3C(=O)N3Cc5ccccc5C[C@H]3C)CN(C(=O)Cc3ccc(OCCN5CCOCC5)cc3F)CC4)n(C)c2C)c2ccc(O)cc2)cc1F | -0.40
* Cc1c(N(C(=O)c2cc(-c3cc4c(cc3C(=O)N3Cc5ccccc5C[C@H]3CN3CC5(CC5)C3)CN(C(=O)Cc3ccc(OCCN5CCOCC5)cc3F)CC4)n(C)c2C)c2ccc(O)cc2)cc(C#N)n1C | -1.15
* Cc1c(N(C(=O)c2cc(-c3cc4c(cc3C(=O)N3Cc5ccccc5C[C@H]3CN3CCCCC3)CN(C(=O)Cc3ccc(Cl)cc3F)CC4)n(C)c2C)c2ccc(O)cc2)cc(C#N)n1C | -0.62
* Cc1c(N(C(=O)c2cc(-c3cc4c(cc3C(=O)N3Cc5ccccc5C[C@H]3C)CN(C(=O)Cc3ccc(C5CCN(CC(F)F)CC5)cc3F)CC4)n(C)c2C)c2ccc(O)cc2)cc(C#N)n1C | 0.21
* Cc1c(N(C(=O)c2cc(-c3cc4c(cc3C(=O)N3Cc5ccccc5C[C@H]3C)CN(C(=O)Cc3ccc(OCCN(C)C5COC5)cc3)CC4)n(C)c2C)c2ccc(O)cc2)cc(C#N)n1C | -1.05
* Cc1c(N(C(=O)c2cc(-c3cc4c(cc3C(=O)N3Cc5ccccc5C[C@H]3C)CN(C(=O)C(F)(F)c3ccccc3)CC4)n(C)c2C)c2ccc(O)cc2)cc(C#N)n1C | 0.42
* Cc1cc(OCCN2CCOCC2)ccc1CC(=O)N1CCc2cc(-c3cc(C(=O)N(c4ccc(O)cc4)c4cc(C#N)n(C)c4C)c(C)n3C)c(C(=O)N3Cc4ccccc4C[C@H]3CN3CCCCC3)cc2C1 | -0.89
* Cc1c(N(C(=O)c2cc(-c3cc4c(cc3C(=O)N3Cc5ccccc5C[C@H]3C)CN(C(=O)Cc3ccc(OCCN5C[C@@H](C)O[C@@H](C)C5)cc3)CC4)n(C)c2C)c2ccc(O)cc2)cc(C#N)n1C | -0.74
* Cc1c(C(=O)N(c2ccc(O)cc2)c2cc(C#N)n(C(F)F)c2C)cc(-c2cc3c(cc2C(=O)N2Cc4ccccc4C[C@H]2CN2CCCCC2)CN(C(=O)Cc2ccc(OCCN4CCOCC4)cc2F)CC3)n1C | -0.59
* Cc1c(N(C(=O)c2cc(-c3cc4c(cc3C(=O)N3Cc5ccccc5C[C@H]3CN(C(C)C)C(C)C)CN(C(=O)Cc3ccc(OCCN5CCOCC5)cc3F)CC4)n(C)c2C)c2ccc(O)cc2)cc(C#N)n1C | -0.44
* Cc1c(N(C(=O)c2cc(-c3cc4c(cc3C(=O)N3Cc5ccccc5C[C@H]3CN3CCCCC3)CN(C(=O)Cc3ccc(OCCN5CCOC(C)(C)C5)cc3)CC4)n(C)c2C)c2ccc(O)cc2)cc(C#N)n1C | -0.64
* COc1ncc(N(C(=O)c2cc(-c3cc4c(cc3C(=O)N3Cc5ccccc5C[C@H]3C)CN(C(=O)Cc3ccc(OCCN5CCOCC5)cc3)CC4)n(C)c2C)c2ccc(O)cc2)cc1F | -0.68
* Cc1c(N(C(=O)c2cc(-c3cc4c(cc3C(=O)N3Cc5ccccc5C[C@H]3C)CN(C(=O)Cc3ccc(OCCN5CCN(C6CC6)CC5)cc3)CC4)n(C)c2C)c2ccc(O)cc2)cc(C#N)n1C | -0.59

###

# tested.system: BCL2 F104I (Homo sapiens, UniProt P10415, F104I)
# assay.remarks: TR-FRET competitive binding assay, BCL2 F104I
# experimental.parameters: Ki determined from IC50, read-out: TR_FRET EKI_Bcl2 F104I
pKi: −log10 of the molar value.
// reported pKi per item
experimental.endpoint: pKi

- Cc1c(N(C(=O)c2cc(-c3cc4c(cc3C(=O)N3Cc5ccccc5C[C@H]3CN3CCC(C)(C)C3)CN(C(=O)Cc3ccc(OCCN5CCOCC5)cc3F)CC4)n(C)c2C)c2ccc(O)cc2)cc(C#N)n1C: 9.57
- Cc1c(N(C(=O)c2cc(-c3cc4c(cc3C(=O)N3Cc5ccccc5C[C@H]3C)CN(C(=O)Cc3cccc(N5CCN(C)CC5)c3)CC4)n(C)c2C)c2ccccc2)cc(C#N)n1C: 8.78
- Cc1c(N(C(=O)c2cc(-c3cc4c(cc3C(=O)N3Cc5ccccc5C[C@H]3CCN3CCCCC3)CN(C(=O)Cc3ccc(OCCN5CCOCC5)cc3F)CC4)n(C)c2C)c2ccc(O)cc2)cc(C#N)n1C: 10.40
- COc1ccc(CC(=O)N2CCc3cc(-c4cc(C(=O)N(c5ccc(O)cc5)c5cc(C#N)n(C)c5C)c(C)n4C)c(C(=O)N4Cc5ccccc5C[C@H]4CN4CCCCC4)cc3C2)c(F)c1: 9.30
- COC[C@@H]1Cc2ccccc2CN1C(=O)c1cc2c(cc1-c1cc(C(=O)N(c3ccc(O)cc3)c3cc(C#N)n(C)c3C)c(C)n1C)CCN(C(=O)Cc1ccc(OCCC3CCOCC3)cc1F)C2: 9.11
- Cc1c(N(C(=O)c2cc(-c3cc4c(cc3C(=O)N3Cc5ccccc5C[C@H]3CN3CCCCC3)CN(C(=O)Cc3ccc(OCCC5CCOCC5)cc3F)CC4)n(C)c2C)c2ccc(O)cc2)cc(C#N)n1C: 9.57
- COc1ncc(N(C(=O)c2cc(-c3cc4c(cc3C(=O)N3Cc5ccccc5C[C@H]3C)CN(C(=O)Cc3ccc(OCCN5CCOCC5)cc3)CC4)n(C)c2C)c2ccc(O)cc2)cc1F: 8.93
- Cc1cc(O)ccc1N(C(=O)c1cc(-c2cc3c(cc2C(=O)N2Cc4ccccc4C[C@H]2C)CN(C(=O)Cc2ccccc2)CC3)n(C)c1C)c1cc(C#N)n(C)c1C: 7.75
- Cc1c(N(C(=O)c2cc(-c3cc4c(cc3C(=O)N3Cc5ccccc5C[C@H]3C)CN(C(=O)Cc3ccc(OCCN(C)C5COC5)cc3)CC4)n(C)c2C)c2ccc(O)cc2)cc(C#N)n1C: 9.68
- Cc1c(N(C(=O)c2cc(-c3cc4c(cc3C(=O)N3Cc5ccccc5C[C@H]3C)CN(C(=O)C3CCN(c5ccccc5)C3=O)CC4)n(C)c2C)c2ccc(O)cc2)cc(C#N)n1C (stereo partly shown): 7.11
